# credit: patent US20170050957A1

Tested on: Key Broadleaf Weed and Crop Species
assay_text: Post-emergent Test II herbicidal activity (Table 15)
Format: in vivo
details: Amaranthus retroflexus, post-emergence, 336 h, redroot pigweed (Amaranthus retroflexus), 35 g ai/ha, 14 d, read-out: Visual Growth Reduction (%) 14 Days After Application, AMARE
# maps each entry to its pest or weed control at 35 g/ha

Some entries whose results are on file:
| smiles_text | tested_on | value_kind | meas_value |
| --- | --- | --- | --- |
| Cc1c(-c2ccc3ccsc3c2)nc(C(=O)O)c(Cl)c1N | Key Broadleaf Weed and Crop Species | pest or weed control at 35 g/ha | 60 to 74% |
| C=Cc1c(C(=O)O)nc(-c2ccc3cc[nH]c3c2F)c(F)c1N | Key Broadleaf Weed and Crop Species | pest or weed control at 35 g/ha | 95 to 100% |

API: the following record is the query input.
For Nc1c(Cl)c(C(=O)O)nc(-c2ccc3sccc3c2)c1Cl the compound record lists pest or weed control at 35 g/ha as 95 to 100%

---

Tested on: Key Broadleaf Weed and Crop Species
assay_text: Post-emergent Test II herbicidal activity (Table 15)
Assay type: in vivo
details: Abutilon theophrasti, post-emergence, 336 h, velvetleaf (Abutilon theophrasti), 70 g ai/ha, 14 d, read-out: Visual Growth Reduction (%) 14 Days After Application, ABUTH
value_kind: pest or weed control at 70 g/ha

Some entries whose results are on file:
| smiles_text | pest or weed control at 70 g/ha |
| --- | --- |
| COC(=O)c1nc(-c2ccc(Cl)c3occc23)c(F)c(N)c1Cl | 95 to 100% |
| C=Cc1c(N)nc(-c2ccc3cc[nH]c3c2F)nc1C(=O)O | 0 to 29% |
| COC(=O)c1nc(-c2ccc3cc[nH]c3c2)cc(N)c1Cl | 60 to 74% |
| COC(=O)c1nc(-c2cc3occc3cc2F)c(F)c(N)c1Cl | 60 to 74% |

For COc1c(N)nc(-c2ccc3sccc3c2)nc1C(=O)O the compound record lists pest or weed control at 70 g/ha as 0 to 29%

---

# maps each entry to its pest or weed control at 70 g/ha
Test system: Key Grass and Sedge Weeds as well as Grass Crops
assay_text: Post-emergent Test II herbicidal activity (Table 16)
Assay type: in vivo
details: Zea mays, post-emergence, 336 h, maize, corn (Zea mays), 70 g ai/ha, 14 d, read-out: Visual Growth Reduction (%) 14 Days After Application, ZEAMX
From the text: Post-emergent Test II: Seeds or nutlets of the desired test plant species were planted in Sun Gro Metro-Mix® 360 planting mixture, which typically has a pH of 6.0 to 6.8 and an organic matter content of about 30 percent, in plastic pots with a surface area of 64 square centimeters. When required to ensure good germination and healthy plants, a fungicide treatment and/or other chemical or physical treatment was applied. […]

Some entries whose results are on file:
| compound | tested_on | meas_value |
| --- | --- | --- |
| COC(=O)c1nc(-c2cc3[nH]ccc3cc2F)cc(N)c1Cl [Compound 1.25] | Key Grass and Sedge Weeds as well as Grass Crops | 0 to 29% |
| COC(=O)c1nc(-c2ccc3ccn(C)c3c2)c(F)c(N)c1Cl [Compound 1.10] | Key Grass and Sedge Weeds as well as Grass Crops | 0 to 29% |

For COC(=O)c1nc(-c2ccc3occc3c2)cc(N)c1Cl [Compound 2.03] the compound record lists pest or weed control at 70 g/ha as 0 to 29%

For Nc1c(F)c(-c2ccc3[nH]ccc3c2)nc(C(=O)O)c1Cl [Compound 1.04] the compound record lists pest or weed control at 70 g/ha as 0 to 29%

---

Tested on: Key Broadleaf Weed and Crop Species
assay_text: Post-emergent Test II herbicidal activity (Table 15)
Type: in vivo
details: Euphorbia heterophylla, post-emergence, 336 h, wild poinsettia (Euphorbia heterophylla), 35 g ai/ha, 14 d, read-out: Visual Growth Reduction (%) 14 Days After Application, EPHHL
# maps each entry to its pest or weed control at 35 g/ha

Some entries whose results are on file:
| smiles_text | pest or weed control at 35 g/ha |
| --- | --- |
| COC(=O)c1nc(-c2ccc3ccn(C)c3c2)c(F)c(N)c1Cl | 0 to 29% |
| COC(=O)c1nc(-c2cccc3ccsc23)cc(N)c1Cl | 0 to 29% |
| COC(=O)c1nc(-c2ccc3ccoc3c2F)cc(N)c1Cl | 95 to 100% |
| Nc1c(F)c(-c2cc3[nH]ccc3cc2F)nc(C(=O)O)c1Cl | 0 to 29% |
| COC(=O)c1nc(-c2ccc3cn[nH]c3c2)cc(N)c1Cl | 0 to 29% |

The reported pest or weed control at 35 g/ha value, Key Broadleaf Weed and Crop Species, for COC(=O)c1nc(-c2ccc3c(N(C)C)noc3c2)c(F)c(N)c1Cl reads 0 to 29%

The reported pest or weed control at 35 g/ha value, Key Broadleaf Weed and Crop Species, for COC(=O)c1nc(-c2ccc3cc[nH]c3c2F)nc(N)c1OC reads 0 to 29%

The reported pest or weed control at 35 g/ha value, Key Broadleaf Weed and Crop Species, for COC(=O)c1nc(-c2cc3ccoc3cc2F)nc(N)c1OC reads 30 to 44%

The reported pest or weed control at 35 g/ha value, Key Broadleaf Weed and Crop Species, for COC(=O)c1nc(-c2cc3sccc3cc2F)c(F)c(N)c1Cl reads 30 to 44%

The reported pest or weed control at 35 g/ha value, Key Broadleaf Weed and Crop Species, for Nc1c(F)c(-c2ccc3occc3c2)nc(C(=O)O)c1Cl reads 75 to 84%

The reported pest or weed control at 35 g/ha value, Key Broadleaf Weed and Crop Species, for COC(=O)c1nc(-c2ccc3occc3c2)cc(N)c1Cl reads 45 to 59%

---

System: Key Grass and Sedge Weeds as well as Grass Crops
assay_text: Post-emergent Test II herbicidal activity (Table 16)
Assay type: in vivo
details: Echinochloa crus-galli, post-emergence, 336 h, barnyardgrass (Echinochloa crus-galli), 140 g ai/ha, 14 days after application, read-out: Visual Growth Reduction (%) 14 Days After Application ECHCG
value_kind: pest or weed control at 140 g/ha

Some entries whose results are on file:
| smiles_text | meas_value |
| --- | --- |
| COC(=O)c1nc(-c2ccc3ccsc3c2)nc(N)c1OC | 60 to 74% |
| COC(=O)c1nc(-c2ccc3c(N(C)C)noc3c2)c(F)c(N)c1Cl | 0 to 29% |
| COc1c(N)nc(-c2ccc3ccsc3c2)nc1C(=O)O | 85 to 94% |
| COC(=O)c1nc(-c2cccc3sccc23)c(F)c(N)c1Cl | 0 to 29% |
| Cc1c(-c2ccc3ccsc3c2)nc(C(=O)O)c(Cl)c1N | 0 to 29% |

For Nc1cc(-c2ccc3ccsc3c2)nc(C(=O)O)c1Cl the compound record lists pest or weed control at 140 g/ha as 75 to 84%

For COC(=O)c1nc(-c2cc3sccc3cc2F)nc(N)c1OC the compound record lists pest or weed control at 140 g/ha as 0 to 29%

For COC(=O)c1nc(-c2cccc3ccsc23)c(F)c(N)c1Cl the compound record lists pest or weed control at 140 g/ha as 0 to 29%

For Nc1c(F)c(-c2ccc3ccsc3c2)nc(C(=O)O)c1Cl the compound record lists pest or weed control at 140 g/ha as 75 to 84%

For COc1c(N)nc(-c2ccc3sccc3c2)nc1C(=O)O the compound record lists pest or weed control at 140 g/ha as 85 to 94%

---

Test system: Key Broadleaf Weed and Crop Species
assay_text: Post-emergent Test II herbicidal activity (Table 15)
Assay type: in vivo
details: Brassica napus, post-emergence, 336 h, oilseed rape, canola (Brassica napus), 140 g ai/ha, 14 d, read-out: Visual Growth Reduction (%) 14 Days After Application, BRSNN
value_kind: pest or weed control at 140 g/ha

Some entries whose results are on file:
| smiles_text | pest or weed control at 140 g/ha |
| --- | --- |
| Nc1c(F)c(-c2ccc3cc[nH]c3c2)nc(C(=O)O)c1Cl | 95 to 100% |
| COC(=O)c1nc(-c2ccc(Cl)c3[nH]ccc23)c(F)c(N)c1Cl | 0 to 29% |
| COC(=O)c1nc(-c2ccc3cc[nH]c3c2F)c(F)c(N)c1OC | 95 to 100% |
| COC(=O)c1nc(-c2ccc3occc3c2)cc(N)c1Cl | 0 to 29% |

For Cn1ncc2ccc(-c3nc(C(=O)O)c(Cl)c(N)c3F)cc21 the compound record lists pest or weed control at 140 g/ha as 60 to 74%

For COC(=O)c1nc(-c2cc3occc3cc2F)nc(N)c1OC the compound record lists pest or weed control at 140 g/ha as 95 to 100%

For COc1c(N)nc(-c2cc3[nH]ccc3cc2F)nc1C(=O)O the compound record lists pest or weed control at 140 g/ha as 75 to 84%
